- Test system: Pseudomonas aeruginosa PAM1001
- Assay Name: microbe, parasite or virus in culture
- Assay type: cell-based
- Condition Notes: Concentration of Compound 5 μg/mL; Levofloxacin 0.25 μg/mL
Threshold rule: Inhibition (%) of growth of P. aeruginosa PAM1001 greater than or equal to 20% is True; below that, False.

>  <Compound>
Cl.Cl.Cl.NCC(=O)N[C@H]1CN[C@H](C(=O)Nc2cnc3ccc(Cc4ccccc4)cc3c2)C1 (relative stereo) [Compound D327]

>  <Label Value>
False

$$$$

*Q* Decide: is the reported value of Inhibition (%) of growth of P. aeruginosa PAM1001 for CNCC(=O)N[C@H]1CN[C@H](C(=O)N2C[C@H](NC(=O)[C@H](O)CCc3ccccc3)C[C@H]2C(=O)Nc2cnc3ccccc3c2)C1.Cl.Cl.Cl (relative stereo) [Compound D106] equal to or greater than 20%?
*A* False

*Q* Record Cl.Cl.NCC(=O)N[C@H]1CN[C@H](C=Cc2ccc(-c3ccccc3)cc2)C1 [Compound D801] ; criterion: Inhibition (%) of growth of P. aeruginosa PAM1001 no lower than 20%. Met?
*A* True

*Q* Entry Cl.Cl.Cl.NC[C@H](O)C(=O)N[C@H]1CN[C@H](C(=O)N2C[C@H](NC(=O)[C@H](O)CCc3ccccc3)C[C@H]2C(=O)Nc2cnc3ccccc3c2)C1 (relative stereo) [Compound D108] : is its Inhibition (%) of growth of P. aeruginosa PAM1001 no less than 20%?
*A* True

*Q* Hi, just wondering whether Cl.Cl.Cl.NCC(=O)N[C@@H]1CCN[C@H](C(=O)N2C[C@H](NC(=O)[C@H](O)CCc3ccccc3)C[C@H]2C(=O)Nc2cnc3ccccc3c2)C1 (relative stereo) [Compound D115] shows Inhibition (%) of growth of P. aeruginosa PAM1001 of 20% or higher.
*A* False

*Q* Please tell me: is the compound Cl.Cl.NCC(=O)N[C@@H]1CN[C@@H](C(=O)N2CCC(Oc3cc(Cl)cc(Cl)c3)CC2)C1 [Compound D415] at or over 20% in terms of Inhibition (%) of growth of P. aeruginosa PAM1001?
*A* True

*Q* Decide: is the reported value of Inhibition (%) of growth of P. aeruginosa PAM1001 for Cl.Cl.NCC(=O)N[C@H]1CN[C@H](COc2ccc(-c3ccccc3)cc2)C1 [Compound D501] equal to or greater than 20%?
*A* True

*Q* Kindly determine if Inhibition (%) of growth of P. aeruginosa PAM1001 recorded for Cl.Cl.NCC(=O)NC1CNC(C(=O)Nc2cccc(NC(=O)CCc3ccccc3)c2)C1 (stereo not drawn) [Compound D701] is above or exactly 20%.
*A* False

---

- Test system: Pseudomonas aeruginosa PAM1001
- Assay Name: microbe, parasite or virus in culture
- Type: cell-based
- Condition Notes: Pseudomonas aeruginosa, PAM1001, read-out: Inhibition (%) of growth of P. aeruginosa PAM1001
Structures can show the parent of a compound that is named as a salt.
Entries and their inhibition at 20 µg/mL values follow.
Reply numerically in %, unit not repeated.

Known inhibition at 20 µg/mL results, listed for orientation:
>  <Compound>
NCC(=O)N[C@H]1CN[C@H](C(=O)Nc2ccc(Cc3ccccc3)cc2)C1 [Compound D308, Dihydrochloride]

>  <Study Target>
Pseudomonas aeruginosa PAM1001

>  <inhibition at 20 µg/mL, %>
100

$$$$
>  <Compound>
NCC(=O)N[C@H]1CN[C@H](C(=O)N2CCN(c3ccccc3Cl)CC2)C1 [Compound D405, Dihydrochloride]

>  <Study Target>
Pseudomonas aeruginosa PAM1001

>  <inhibition at 20 µg/mL, %>
-11

$$$$
>  <Compound>
NCC(=O)N[C@H]1CN[C@H](C(=O)N2C[C@H](NC(=O)[C@H](O)CCc3ccccc3)C[C@H]2C(=O)Nc2cnc3ccccc3c2)C1 (mixture of isomers) [Compound D103, Trihydrochloride]

>  <Study Target>
Pseudomonas aeruginosa PAM1001

>  <inhibition at 20 µg/mL, %>
100

$$$$
>  <Compound>
NCCC1CN[C@H](C(=O)N2C[C@H](NC(=O)[C@H](O)CCc3ccccc3)C[C@H]2C(=O)Nc2cnc3ccccc3c2)C1 (some centres unmarked) [Compound D110, Trihydrochloride]

>  <Study Target>
Pseudomonas aeruginosa PAM1001

>  <inhibition at 20 µg/mL, %>
100

$$$$

Now turn to the next compound.
The compound NCC(=O)N[C@H]1CN[C@H](C(=O)Nc2ccc(Oc3ccccc3)cc2)C1 [Compound D301, Dihydrochloride] showed inhibition at 20 µg/mL equal to 99

---

- Tested on: Pseudomonas aeruginosa PAM1001
- Assay Name: microbe, parasite or virus in culture
- Assay type: cell-based
- Condition Notes: Pseudomonas aeruginosa, PAM1001, read-out: Inhibition (%) of growth of P. aeruginosa PAM1001
Counter-ions that a name gives are not always drawn.
Reported inhibition at 20 µg/mL is given for each of the following molecules.
Report the value in % with no unit label.

Reported inhibition at 20 µg/mL for NCC(=O)N[C@H]1CN[C@H](C(=O)N2CCN(c3cccc(Cl)c3)CC2)C1 [Compound D401, Dihydrochloride] was 4

The reported value for NCC(=O)N[C@H]1CN[C@H](C(=O)Nc2ccc(SCc3ccccc3)cc2)C1 [Compound D320, Dihydrochloride] in terms of inhibition at 20 µg/mL is 100

What the record says about NCCC[C@H](N)C(=O)N1C[C@@H](NC(=O)CCCc2ccccc2)C[C@H]1C(=O)Nc1ccc2c(c1)CCC2 : inhibition at 20 µg/mL is 100

Lab note: measured inhibition at 20 µg/mL of NCCS(=O)(=O)N[C@H]1CN[C@H](C(=O)Nc2ccc(Oc3ccccc3)cc2)C1 [Compound D322, Dihydrochloride] was 99

The value of inhibition at 20 µg/mL measured for the molecule NCCNC(=O)[C@@H]1C[C@@H](Oc2cccc(-c3ccccc3)c2)CN1 [Compound D601, Dihydrochloride] turned out to be 86

Given item NCC(=O)N[C@H]1CN[C@H](C(=O)Nc2ccc(Nc3ccccc3)cc2)C1 [Compound D304, Dihydrochloride] , the value recorded as its inhibition at 20 µg/mL is -11

Notebook: N[C@H]1CN[C@H](C(=O)N[C@H](CCc2ccccc2)C(=O)Nc2cnc3ccccc3c2)C1 [Compound D202, Trihydrochloride] , inhibition at 20 µg/mL read as 21

---

- Tested on: Pseudomonas aeruginosa PAM1001
- Assay Name: microbe, parasite or virus in culture
- Assay type: cell-based
- Condition Notes: Concentration of Compound 10 μg/mL; Levofloxacin 0.25 μg/mL
Mark t only when Inhibition (%) of growth of P. aeruginosa PAM1001 stays strictly below 20%. Values equal to the cut-off are f.

Check out these entries, answers already filled in.
>  <Compound>
Cl.Cl.Cl.NCC(=O)N[C@H]1CN[C@H](C(=O)Nc2cnc3ccc(Cc4ccccc4)cc3c2)C1 (relative stereo)

>  <Label Value>
f

$$$$
>  <Compound>
Cl.Cl.Cl.NCC(=O)NC1CNC(C(=O)Nc2cccc(NC(=O)CCc3ccccc3)n2)C1 (stereo not drawn)

>  <Label Value>
f

$$$$
>  <Compound>
Cl.Cl.Cl.NCC(=O)N[C@@H]1CCN[C@H](C(=O)N2C[C@H](NC(=O)[C@H](O)CCc3ccccc3)C[C@H]2C(=O)Nc2cnc3ccccc3c2)C1 (relative stereo)

>  <Label Value>
t

$$$$
>  <Compound>
Cl.Cl.Cl.NCC(=O)N[C@H]1CN[C@H](C(=O)Nc2nc(-c3ccccc3)cs2)C1 (relative stereo)

>  <Label Value>
t

$$$$

*Q* Would you kindly verify if Inhibition (%) of growth of P. aeruginosa PAM1001 of Cl.Cl.NCC(=O)N[C@H]1CN[C@H](C=Cc2ccc(-c3ccccc3)cc2)C1 is strictly less than 20%?
*A* f

*Q* Dear reviewer, please state whether Cl.Cl.NCC(=O)N[C@H]1CN[C@H](COc2ccc(-c3ccccc3)cc2)C1 has Inhibition (%) of growth of P. aeruginosa PAM1001 strictly beneath 20%.
*A* f

*Q* Dear reviewer, please state whether Cl.Cl.NCC(=O)N[C@H]1CN[C@H](C(=O)N2CCN(c3ccc(Cl)cc3)CC2)C1 (relative stereo) has Inhibition (%) of growth of P. aeruginosa PAM1001 strictly beneath 20%.
*A* f

*Q* For Cl.Cl.NCC(=O)NC1CNC(C(=O)Nc2cccc(NC(=O)CCc3ccccc3)c2)C1 (stereo not drawn) , is the recorded Inhibition (%) of growth of P. aeruginosa PAM1001 below the cut-off of 20%?
*A* f

*Q* Please indicate whether the reported Inhibition (%) of growth of P. aeruginosa PAM1001 of Cl.Cl.NCC(=O)N[C@H]1CN[C@H](C(=O)NCc2ccc(-c3ccccc3)cc2)C1 (relative stereo) is strictly below 20%.
*A* f

*Q* Does the reported Inhibition (%) of growth of P. aeruginosa PAM1001 of Cl.Cl.NCC(=O)N[C@@H]1CN[C@@H](C(=O)N2CCC(Oc3cc(Cl)cc(Cl)c3)CC2)C1 stay below 20%?
*A* f

*Q* Regarding Cl.Cl.Cl.NC[C@H](O)C(=O)N[C@H]1CN[C@H](C(=O)N2C[C@H](NC(=O)[C@H](O)CCc3ccccc3)C[C@H]2C(=O)Nc2cnc3ccccc3c2)C1 (relative stereo) , kindly confirm whether its Inhibition (%) of growth of P. aeruginosa PAM1001 is beneath 20%.
*A* f
